- Test Protocol: Pharmacokinetics of a single ascending oral dose in healthy male subjects
- Assay type: in vivo, human
- Conditions Used: human, in vivo; single oral dose 200 mg, unformulated in capsule, healthy male subjects; geometric mean
Measured Quantity: AUC(0-t) (ng·h/mL)
Answer in ng·h/mL, number only, no unit symbol.

// query Fill in AUC(0-t) for record O[C@H]1CC[C@H](Nc2ncc3nc(Nc4c(F)cc(F)cc4F)n([C@H]4CCOC4)c3n2)CC1
// result 23100

###

- Test Protocol: clinical
- Conditions Used: female, human, in vivo, po, 100 mg, AUC0-∞
Measured Quantity: AUC(0-inf)

// query Fill in AUC(0-inf) for record O[C@H]1CC[C@H](Nc2ncc3nc(Nc4c(F)cc(F)cc4F)n([C@H]4CCOC4)c3n2)CC1 [Compound I]
// result 13700 ng·h/mL

###

- Test Protocol: clinical
- Conditions Used: female, human, in vivo, po, 100 mg, AUCO-t
Measured Quantity: AUC (ng·h/mL)
Answer in ng·h/mL, number only, no unit symbol.

// query Fill in AUC for record O[C@H]1CC[C@H](Nc2ncc3nc(Nc4c(F)cc(F)cc4F)n([C@H]4CCOC4)c3n2)CC1
// result 12700

###

- Test Protocol: Pharmacokinetics of a single ascending oral dose in healthy male subjects
- Format: in vivo, human
- Conditions Used: human, in vivo; single oral dose 25 mg, unformulated in capsule, healthy male subjects; geometric mean
Measured Quantity: half-life (h)
Answer in h, number only, no unit symbol.

// query Fill in half-life for record O[C@H]1CC[C@H](Nc2ncc3nc(Nc4c(F)cc(F)cc4F)n([C@H]4CCOC4)c3n2)CC1 [Compound I]
// result 24.1

###

- Test Protocol: clinical
- Conditions Used: male, human, in vivo, po, 100 mg, Cmax, Geometric Mean
Measured Quantity: Cmax (ng/mL)
Answer in ng/mL, number only, no unit symbol.

// query Fill in Cmax for record O[C@H]1CC[C@H](Nc2ncc3nc(Nc4c(F)cc(F)cc4F)n([C@H]4CCOC4)c3n2)CC1 [Compound I]
// result 646

###

- Test Protocol: Pharmacokinetics (plasma and urine) of ascending multiple oral doses in healthy volunteers
- Format: in vivo, human
- Conditions Used: both sexes, human, plasma, oral, 25 mg, 25 mg QD, Day 14, plasma, healthy subjects (N = 8); geometric mean; read-out: Ctrough
Measured Quantity: concentration at 24 h (ng/mL)
Answer in ng/mL, number only, no unit symbol.

// query Fill in concentration at 24 h for record O[C@H]1CC[C@H](Nc2ncc3nc(Nc4c(F)cc(F)cc4F)n([C@H]4CCOC4)c3n2)CC1
// result 130

###

- Test Protocol: clinical
- Conditions Used: male, human, in vivo, po, 100 mg, T1/2
Measured Quantity: half-life (h)
Answer in h, number only, no unit symbol.

// query Fill in half-life for record O[C@H]1CC[C@H](Nc2ncc3nc(Nc4c(F)cc(F)cc4F)n([C@H]4CCOC4)c3n2)CC1
// result 33

###

- Test Protocol: clinical
- Conditions Used: both sexes, human, in vivo, po, 100 mg, AUC0-∞ (geometric mean)
Measured Quantity: AUC(0-inf)
Put your answer as a value accompanied by its unit after it.

// query Fill in AUC(0-inf) for record O[C@H]1CC[C@H](Nc2ncc3nc(Nc4c(F)cc(F)cc4F)n([C@H]4CCOC4)c3n2)CC1
// result 14400 ng·h/mL
